// values below are reported Max MFI
target: T1, human Claudin18.2 (human, UniProt P56856-2 1-261); test: flow cytometry (IntelliCyt) on Ba/F3-Claudin18.2 cells
T1 construct: whole, on cells; Four-transmembrane protein, always presented on cells (transfected lines or NUGC-4 with endogenous expression); also called CLDN18.2
Give just the number in MFI; leave the unit off.

humanized antibody 1E9.2-hz21 (antibody, human IgG1, kappa, V domains shown, Human IgG1 / kappa constant regions) VH: EVQLVESGGGLVKPGGSLRLSCAASGFSFSNSAMSWVRQAPGKGLEGVSTISSGDSYTYYADSVKGRFTISRDNAKNSLYLQMNSLRAEDTAVYYCARQGYGNALDYWGQGTLVTVSS VL: DIVMTQSPDSLAVSLGERATINCKSSQSLLNSGNQKNYLTWYQQKPGQPPKLLIYWSSTRESGVPDRFSGSGSGTDFTLTISSLQAEDFAVYYCQNDYYYPLTFGGGTKVEIKR ... 1.46e+07
humanized antibody 1E9.2-hz15 (antibody, human IgG1, kappa, V domains shown, Human IgG1 / kappa constant regions) VH: EVQLVESGGGLVKPGGSLRLSCAASGFSFSNSAMSWVRQAPGKGLEWVSTISSGDSYTYYADSVKGRFTISRDNAKNSLYLQMNSLRAEDTAVYYCARQGYGNALDYWGQGTLVTVSS VL: DIVMTQTPLSLPVTPGEPASISCKSSQSLLNSGNQKNYLTWYLQKPGQSPQLLIYWSSTRESGVPDRFSGSGSGTDFTLKISRVEAEDFGVYYCQNDYYYPLTFGGGTKVEIKR ... 8.99e+06
humanized antibody 1E9.2-hz41 (antibody, human IgG1, kappa, V domains shown, Human IgG1 / kappa constant regions) VH: EVQLVESGGGLVKPGGSLRLSCAASGFSFSNSAMSWVRQAPGKGLEGVATISSGDSYTYYPDSVKGRFTISRDNAKNSLYLQMNSLRAEDTAVYYCARQGYGNALDYWGQGTLVTVSS VL: DIVMTQSPDSLAVSLGERATINCKSSQSLLNSGNQKNYLTWYQQKPGQPPKLLIYWSSTRESGVPDRFSGSGSGTDFTLTISSLQAEDFAVYYCQNDYYYPLTFGGGTKVEIKR ... 1.13e+07

Next binder, please.
Ask: Entry under review: humanized antibody 1E9.2-hz17 (antibody, human IgG1, kappa, V domains shown, Human IgG1 / kappa constant regions) VH: EVQLVESGGGLVKPGGSLRLSCAASGFSFSNSAMSWVRQAPGKGLEWVSTISSGDSYTYYADSVKGRFTISRDNAKNSLYLQMNSLRAEDTAVYYCARQGYGNALDYWGQGTLVTVSS VL: DIVMTQTPLSLPVTPGEPASISCKSSQSLLQSGNGKNYLTWYLQKPGQSPQLLIYWSSTRESGVPDRFSGSGSGTDFTLKISRVEAEDFGVYYCQNDYYYPLTFGGGTKVEIKR . Reported Max MFI?
Result: 5.9e+06

These entries and their values trace back to patent US20250340630A1.
